biological target: DNA polymerase α (calf thymus pol α) (Bos taurus); construct: gene POLA1; pol α purified from calf thymus; test: [3H]-dTTP incorporation polymerase assay on poly(dA)/oligo(dT)[…]-18 with purified pol α; format: biochemical
Sequence (A0AAA9TD94 1-1441): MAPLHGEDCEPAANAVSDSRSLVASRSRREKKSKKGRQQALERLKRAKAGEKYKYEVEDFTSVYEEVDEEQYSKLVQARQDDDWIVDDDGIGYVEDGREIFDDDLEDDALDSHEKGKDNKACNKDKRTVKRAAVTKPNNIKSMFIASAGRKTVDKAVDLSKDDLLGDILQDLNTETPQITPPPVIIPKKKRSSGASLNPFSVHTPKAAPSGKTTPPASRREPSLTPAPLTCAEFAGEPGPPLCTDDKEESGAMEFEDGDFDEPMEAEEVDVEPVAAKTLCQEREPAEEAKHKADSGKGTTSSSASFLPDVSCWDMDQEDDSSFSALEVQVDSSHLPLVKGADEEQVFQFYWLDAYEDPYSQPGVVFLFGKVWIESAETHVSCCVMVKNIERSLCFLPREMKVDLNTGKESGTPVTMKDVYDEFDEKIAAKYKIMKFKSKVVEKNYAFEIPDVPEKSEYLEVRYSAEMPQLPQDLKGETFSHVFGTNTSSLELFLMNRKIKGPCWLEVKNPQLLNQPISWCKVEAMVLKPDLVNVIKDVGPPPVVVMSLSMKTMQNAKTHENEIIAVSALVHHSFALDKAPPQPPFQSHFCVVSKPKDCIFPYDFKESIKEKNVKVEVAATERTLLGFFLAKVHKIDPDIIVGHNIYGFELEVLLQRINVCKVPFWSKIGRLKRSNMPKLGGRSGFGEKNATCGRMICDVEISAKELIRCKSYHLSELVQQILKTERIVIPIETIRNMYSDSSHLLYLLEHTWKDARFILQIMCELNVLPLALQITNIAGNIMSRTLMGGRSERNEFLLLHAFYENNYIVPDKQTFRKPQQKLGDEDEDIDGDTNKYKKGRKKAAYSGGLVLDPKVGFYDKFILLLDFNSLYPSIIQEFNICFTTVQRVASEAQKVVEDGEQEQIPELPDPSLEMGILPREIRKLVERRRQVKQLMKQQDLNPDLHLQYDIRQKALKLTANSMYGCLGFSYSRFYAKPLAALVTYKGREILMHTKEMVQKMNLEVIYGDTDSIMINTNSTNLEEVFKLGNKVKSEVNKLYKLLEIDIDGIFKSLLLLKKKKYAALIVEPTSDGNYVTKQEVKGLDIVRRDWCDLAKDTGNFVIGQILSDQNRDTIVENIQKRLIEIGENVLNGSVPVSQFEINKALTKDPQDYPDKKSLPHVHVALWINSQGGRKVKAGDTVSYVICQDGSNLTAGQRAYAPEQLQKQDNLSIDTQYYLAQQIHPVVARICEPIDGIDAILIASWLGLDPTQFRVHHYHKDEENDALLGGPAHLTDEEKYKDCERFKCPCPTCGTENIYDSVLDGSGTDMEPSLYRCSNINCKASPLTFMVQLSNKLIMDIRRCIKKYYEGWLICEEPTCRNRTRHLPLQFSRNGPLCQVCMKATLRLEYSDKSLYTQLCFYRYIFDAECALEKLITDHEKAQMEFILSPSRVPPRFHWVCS
recordedEndpoint: IC50 (µM)
The reply should contain only the number, in µM.

Entry C[C@@]1(CO)[C@H](O)CC[C@@]2(C)[C@H]1CC[C@H]1C[C@@H]3C[C@@]12CC[C@]3(O)CO needs its IC50 filled in; supply it.
14.5
